Method summary: Approximate solubility of Compound 1 Form I at 25° C. and 50° C. (visual observation)
Assay type: physicochemical
Condition notes: THF:Water (v:v = 95:5), 50 °C, organic solvent or mixture, thermodynamic from solid, THF:Water (v:v = 95:5), 50° C.
Quantity kind: solubility

For the compound shown here, O=C1CC[C@H](N2C(=O)c3cccc4c(Cc5ccc(CN6CCOCC6)cc5)ccc2c34)C(=O)N1 [Compound 1 Form I] , give the reported solubility.
40 to 50 mg/mL

====

Method summary: Approximate solubility of Compound 1 Form I at 25° C. and 50° C. (visual observation)
Assay type: physicochemical
Condition notes: THF, 25 °C, organic solvent or mixture, thermodynamic from solid
Quantity kind: solubility

For the compound shown here, O=C1CC[C@H](N2C(=O)c3cccc4c(Cc5ccc(CN6CCOCC6)cc5)ccc2c34)C(=O)N1 [Compound 1 Form I] , give the reported solubility.
8 to 13 mg/mL
